# System: maximal electroshock
# experimentalProtocol: Modified maximal electroshock test (100 Hz, 0.1 sec., 150 volt) of hydrolyzable silanes, oral
# Assay type: in vivo, male Carworth mice
# runParameters: Mus musculus, sesame oil, 4 hrs. after dosing, read-out: Maximal Electroshock ED50 (95% C.I.)
For each entry below, report its ED50 value.

# ED50 measured on maximal electroshock for item CC(=O)O[Si](OC(C)=O)(c1ccccc1)c1ccccc1 = 11 mg/kg

Tested on maximal electroshock, the item CCCCS[Si](SCCCC)(c1ccccc1)c1ccccc1 [.phi.2 Si(SC4 H9)2] showed ED50 equal to 65 mg/kg

Item CCN(CC)CCO[Si](OCCN(CC)CC)(c1ccccc1)c1ccccc1 [.phi.2 Si[OCH2 CH2 N(C2 H5)2]2] was tested on maximal electroshock; the reported ED50 is 84 mg/kg

GET /values?item= CCCCO[Si](OCCCC)(c1ccccc1)c1ccccc1 [.phi.2 Si(On-C4 H9)2, diphenyl-di-n-butoxysilane, reference compound] &system= maximal electroshock returns ED50: 1000 mg/kg

Kindly note: maximal electroshock, O[Si](O)(c1ccccc1)c1ccccc1 , ED50 value reported: 61 mg/kg

Summary line: CO[Si](OC)(c1ccccc1)c1ccccc1 , maximal electroshock, reported ED50 = 26 mg/kg

Reading of ED50 for N[Si](N)(c1ccccc1)c1ccccc1 with maximal electroshock: 68 mg/kg

CN[Si](NC)(c1ccccc1)c1ccccc1 tested on maximal electroshock gave ED50: 70 mg/kg

Given the molecule O[Si](O[Si](O)(c1ccccc1)c1ccccc1)(c1ccccc1)c1ccccc1 [reference compound] and test system maximal electroshock, the measured ED50 is 1000 mg/kg

# lookup: CCO[SiH](c1ccccc1)c1ccccc1 on maximal electroshock, ED50 = 21 mg/kg

* * *

# experimentalProtocol: Acute toxicity (LD50), i.p.
# runParameters: mouse, in vivo, ip, mice, freshly prepared solution
parameter: LD50 (mg/kg)
Provide only the numeric value, understood in mg/kg.

Lab note: measured LD50 of O[Si](O)(c1ccccc1)c1ccccc1 was 2500

* * *

# experimentalProtocol: LD50, single dose in sesame oil, 14 days observation
# Set-up: species or system male Carworth mice
# runParameters: mouse, in vivo, po, dead after 14 days
What LD50 at 336 h was measured for each of the following?
Don't forget the unit after the number, please.

Item: c1ccc([SiH2]c2ccccc2)cc1 | LD50 at 336 h: 924 mg/kg

Reported LD50 at 336 h for CO[Si](OC)(c1ccccc1)c1ccccc1 was 1060 mg/kg

Form field LD50 at 336 h, entry CCO[Si](OCC)(c1ccccc1)c1ccccc1 : 1720 mg/kg

Recorded result, CCCO[Si](OCCC)(c1ccccc1)c1ccccc1 , LD50 at 336 h: 1000 mg/kg

The compound listed as CC(C)O[Si](OC(C)C)(c1ccccc1)c1ccccc1 has a reported LD50 at 336 h of 990 mg/kg

Consider CCCCO[Si](OCCCC)(c1ccccc1)c1ccccc1 [.phi.2 Si(On-C4 H9)2, diphenyl-di-n-butoxysilane, reference compound] . Its measured LD50 at 336 h is 5300 mg/kg
